These data points were gathered from patent US20230348614A1.

Consider the following binders and their measured pKd readings.
Biological target: T1, Biotinylated recombinant soluble human CD138 extracellular domain (Sino Biological, Cat. 11429-H08H) (human, UniProt P18827 18-251, biotin (EZ-Link NHS-SS-PEG4 Biotin) on primary amino groups of lysines, protein:biotin 1:20)
T1 construct: range 18-251; Bought reagent; The limits are printed as approximate; also called biotinylated CD138; recombinant CD138
T1 sequence (looked up): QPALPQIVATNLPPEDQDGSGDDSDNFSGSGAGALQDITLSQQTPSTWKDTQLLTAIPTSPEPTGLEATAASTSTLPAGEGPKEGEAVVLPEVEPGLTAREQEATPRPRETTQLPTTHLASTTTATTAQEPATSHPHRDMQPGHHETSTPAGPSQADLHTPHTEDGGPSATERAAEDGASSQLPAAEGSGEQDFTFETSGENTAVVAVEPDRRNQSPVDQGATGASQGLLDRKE
Experiment: BLI (Octet): biotinylated CD138 (10 nM) on streptavidin tips, antibody 12.5 and 25 nM, pH 6.0, 1:1 fit
pKd: −log10 of the molar value.

| binder | pKd |
| --- | --- |
| Antibody Ab71 (antibody, V domains shown) VH: QVQLVQSGAEVKKPGASVKVSCKASGYSFSSYYMHWVRQAPGQGLEWMGDIHPSDSTTNYNQKFQGRVTMTVDTSTRTAYMELSSLRSEDTAVYYCANFVYWGQGTTVTVSS VL: DIVMTQTPLSLSVTPGQPASISCKSSKSLLYKDGKTYLNWFLQKPGQSPQLLIYVVSTRASGVPDRFSGSGSGTDFTLKISRVEAEDVGVYYCQQLVEYPYTFGQGTKLEIK | 9.01 |
| Antibody Ab43 (antibody, V domains shown) VH: EVQLVQSGAEVKKPGASVKVSCKASGYSFSSYYMHWVRQAPGQGLEWMGTIHPSDSTTNYNQKFQGRVTMTVDTSTRTAYMELSSLRSEDTAVYYCADFVYWGQGTTVTVSS VL: DIVMTQTPLSLSVTPGQPASISCKSSKSLLYKDGKTYLLWFLQKPGQSPQLLIYVVSTRASGVPDRFSGSGSGTDFTLKISRVEAEDVGVYYCQQLVEYPYTFGQGTKLEIK | 8.19 |
| Antibody Ab30 (antibody, V domains shown) VH: EVQLVQSGAEVKKPGASVKVSCKASGYSFSSYYMHWVRQAPGQGLEWMGTIHPEDSTTNYNQKFQGRVTMTVDTSTRTAYMELSSLRSEDTAVYYCADFVYWGQGTTVTVSS VL: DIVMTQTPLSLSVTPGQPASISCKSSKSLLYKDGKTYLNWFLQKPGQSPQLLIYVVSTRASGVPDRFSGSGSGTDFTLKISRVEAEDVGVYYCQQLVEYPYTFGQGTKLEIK | 8.34 |
| Antibody Ab32 (antibody, V domains shown) VH: EVQLVQSGAEVKKPGASVKVSCKASGYSFSSYYMHWVRQAPGQGLEWMGTIHPSDSTTNYNQKFQGRVTMTVDTSTRTAYMELSSLRSEDTAVYYCADFLYWGQGTTVTVSS VL: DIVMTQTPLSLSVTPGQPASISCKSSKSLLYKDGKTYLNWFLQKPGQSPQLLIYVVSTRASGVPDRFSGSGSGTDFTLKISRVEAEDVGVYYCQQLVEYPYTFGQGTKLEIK | 8.19 |
